Values were extracted from patent US6723753B2.

molecular target: CETP (Homo sapiens); assay: Assay of CETP Inhibition using Purified Components (Reconstituted Buffer Assay); format: biochemical; design: made in house; host or cells: CHO cells (serum-free conditioned medium); settings: Inhibition of CETP activity in reconstituted buffer assay; transfer of [3H]CE from HDL to LDL; read-out: IC50
Sequence (P11597 18-493): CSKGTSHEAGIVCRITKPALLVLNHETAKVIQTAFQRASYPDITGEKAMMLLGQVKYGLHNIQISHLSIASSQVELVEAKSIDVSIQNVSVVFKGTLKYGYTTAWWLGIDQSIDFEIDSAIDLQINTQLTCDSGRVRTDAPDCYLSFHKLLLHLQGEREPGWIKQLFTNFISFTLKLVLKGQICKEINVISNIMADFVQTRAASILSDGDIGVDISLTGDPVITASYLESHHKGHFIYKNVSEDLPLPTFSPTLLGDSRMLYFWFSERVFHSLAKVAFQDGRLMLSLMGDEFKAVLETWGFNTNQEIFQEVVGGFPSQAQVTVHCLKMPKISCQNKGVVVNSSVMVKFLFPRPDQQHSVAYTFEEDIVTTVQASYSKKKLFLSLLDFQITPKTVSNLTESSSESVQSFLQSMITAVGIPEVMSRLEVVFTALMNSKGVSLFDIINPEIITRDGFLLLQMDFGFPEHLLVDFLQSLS
Result type: IC50 (µM)

N#Cc1cccc(Nc2cccc(N(Cc3cccc(OC(F)(F)C(F)F)c3)CC(O)C(F)(F)F)c2)c1 (stereo not shown) [Example 302]
2.5

[I] COC(=O)CCCCOc1cccc(N(Cc2cccc(OC(F)(F)C(F)F)c2)CC(O)C(F)(F)F)c1 (stereo not shown) [Example 496]
[II] N#Cc1cccc(N(Cc2ccc(C(F)(F)F)cc2)CC(O)C(F)(F)F)c1 (stereo not shown) [Example 142]
IN: For I and II , which recorded IC50 is lower? Return value: the label identifying the chosen record.
OUT: I
